Just for reference, patent US20230091047A1 is where these values come from.

- Test system: HBV (HepG2.117 cell line, inducibly HBV producing)
- experiment: Anti-HBV activity: intracellular HBV DNA by real-time PCR in HepG2.117 cells after 3 days of treatment
- Format: cell-based, hepatitis B virus
- settings: Hepatitis B virus, HepG2.117, 72 h, HepG2.117 cells, 3 days of treatment, intracellular HBV DNA by real-time PCR; mean value; read-out: EC50 (μM, mean value)
# Lookup of reported EC50 keyed by entry
reportedMetric: EC50 (µM)

[[record]]
molecule = "COc1ccc(CNc2nc3c(c(=O)n2-c2ccccn2)CCN(C(=O)c2ccc(Cl)c(Cl)c2)C3)cc1"
valueunits = "µM"
reportedresult = 2.11

[[record]]
molecule = "COc1ccc(CNc2nc3c(c(=O)n2-c2ccc4ncoc4c2)CCN(C(=O)c2ccc(Cl)c(Cl)c2)C3)cc1"
valueunits = "µM"
reportedresult = 0.53

[[record]]
molecule = "COc1ccc(CNc2nc3c(c(=O)n2-c2ccc(-n4cccn4)cc2)CCN(C(=O)c2ccc(Cl)c(Cl)c2)C3)cc1"
valueunits = "µM"
reportedresult = 1.46

[[record]]
molecule = "CNC(=O)c1ccc(-n2c(N[C@@H](C)CCO)nc3c(c2=O)C[C@@H](C)N(C(=O)c2ccc(Cl)c(Cl)c2)C3)cc1"
valueunits = "µM"
reportedresult = 1.68

[[record]]
molecule = "Cc1ccncc1-n1c(NC(C)C)nc2c(c1=O)CCN(C(=O)c1ccc(Cl)c(Cl)c1)C2"
valueunits = "µM"
reportedresult = 1.78

[[record]]
molecule = "CNC(=O)c1ccc(-n2c(NC3CCC34CCC4)nc3c(c2=O)C[C@@H](C)N(C(=O)c2ccc(Cl)c(Cl)c2)C3)cc1 (stereo partly shown)"
valueunits = "µM"
reportedresult = 0.27

[[record]]
molecule = "COc1ccccc1-n1c(NCC2CC2)nc2c(c1=O)CCN(C(=O)c1ccc(Cl)c(Cl)c1)C2"
valueunits = "µM"
reportedresult = 5.85


###

# Lookup of reported log10(EC50) keyed by entry
- Test system: HBV (HepG2.117 cell line, inducibly HBV producing)
- experiment: Anti-HBV activity: intracellular HBV DNA by real-time PCR in HepG2.117 cells after 3 days of treatment
- Format: cell-based, hepatitis B virus
- settings: Hepatitis B virus, HepG2.117, 72 h, HepG2.117 cells, 3 days of treatment, intracellular HBV DNA by real-time PCR; mean value; read-out: EC50 (μM, mean value)
reportedMetric: log10(EC50) (log10 of the value in µM)

[[record]]
molecule = "CCOC(=O)c1cccc(-n2c(NCc3ccc(OC)cc3)nc3c(c2=O)CCN(C(=O)c2ccc(Cl)c(Cl)c2)C3)c1"
reportedmetric = "log10(EC50)"
reportedresult = 0.16

[[record]]
molecule = "CNC(=O)c1ccc(-n2c(N[C@H](C)CCO)nc3c(c2=O)C[C@@H](C)N(C(=O)c2ccc(Cl)c(Cl)c2)C3)cc1"
reportedmetric = "log10(EC50)"
reportedresult = -0.34

[[record]]
molecule = "COc1ccccc1CNc1nc2c(c(=O)n1-c1ccccc1OC)CCN(C(=O)c1ccc(Cl)c(Cl)c1)C2"
reportedmetric = "log10(EC50)"
reportedresult = -0.01

[[record]]
molecule = "CC(C)Nc1nc2c(c(=O)n1-c1cccc3c1CNC3=O)C[C@@H](C)N(C(=O)c1ccc(Cl)c(Cl)c1)C2"
reportedmetric = "log10(EC50)"
reportedresult = -0.46

[[record]]
molecule = "CCOC(=O)c1ccc(-n2c(NC(C)C)nc3c(c2=O)C[C@@H](C)N(C(=O)c2ccc(Cl)c(Cl)c2)C3)cc1"
reportedmetric = "log10(EC50)"
reportedresult = -0.12

[[record]]
molecule = "CNC(=O)c1ccc(-n2c(N3CCC34CCC4)nc3c(c2=O)C[C@@H](C)N(C(=O)c2ccc(Cl)c(Cl)c2)C3)cc1"
reportedmetric = "log10(EC50)"
reportedresult = -0.15

[[record]]
molecule = "COc1ccc(CNc2nc3c(c(=O)n2CC2CC2)CCN(C(=O)c2ccc(Cl)c(Cl)c2)C3)cc1"
reportedmetric = "log10(EC50)"
reportedresult = 0.40

[[record]]
molecule = "COc1ccccc1-n1c(NCc2ccccn2)nc2c(c1=O)CCN(C(=O)c1ccc(Cl)c(Cl)c1)C2"
reportedmetric = "log10(EC50)"
reportedresult = 0.77

[[record]]
molecule = "COc1ccccc1-n1c(NCC(C)C)nc2c(c1=O)CCN(C(=O)c1ccc(Cl)c(Cl)c1)C2"
reportedmetric = "log10(EC50)"
reportedresult = 1.34

[[record]]
molecule = "Cc1nnc(-c2ccc(-n3c(NC(C)C)nc4c(c3=O)C[C@@H](C)N(C(=O)c3ccc(Cl)c(Cl)c3)C4)cc2)s1"
reportedmetric = "log10(EC50)"
reportedresult = -0.77

[[record]]
molecule = "COc1cc(-n2c(NC(C)C)nc3c(c2=O)CCN(C(=O)c2ccc(Cl)c(Cl)c2)C3)cc(S(C)(=O)=O)c1"
reportedmetric = "log10(EC50)"
reportedresult = 0.70

[[record]]
molecule = "CNC(=O)c1ccc(-n2c(NC(C)c3ccc(OC)cc3)nc3c(c2=O)C[C@@H](C)N(C(=O)c2ccc(Cl)c(Cl)c2)C3)cc1 (some centres unmarked)"
reportedmetric = "log10(EC50)"
reportedresult = -0.89

[[record]]
molecule = "CNC(=O)c1cc(-n2c(NC(C)C)nc3c(c2=O)C[C@@H](C)N(C(=O)c2ccc(Cl)c(Cl)c2)C3)n(C)n1"
reportedmetric = "log10(EC50)"
reportedresult = -0.80

[[record]]
molecule = "CNC1CCN(c2ccc(-n3c(NC(C)C)nc4c(c3=O)CCN(C(=O)c3ccc(Cl)c(Cl)c3)C4)cc2)C1 (centres unmarked)"
reportedmetric = "log10(EC50)"
reportedresult = -0.14

